# Tested on: human liver microsomes, metabolic stability half-life
# Measurement Description: NCATS Human Liver Microsomal (HLM) Stability Profiling
# Condition Info: higher = more stable; screened at 1 µM (by protocol)
Reported half-life is given for each of the following compounds.
The figure you give is taken to be in h; do not add the unit.

Please give the measured half-life for this compound: `CCc1cc(Cl)c(OC)c(C(=O)NC[C@@H]2CCCN2CC)c1O` 0.226

Please give the measured half-life for this compound: `CCc1ccc(-n2c(SCc3cccc(F)c3)nc3[nH]ncc3c2=O)cc1` 1.34

Please give the measured half-life for this compound: `CC(=O)N1CCN(C(=O)Cc2ccc(Nc3ncc(F)c(Nc4ccc(C(=O)Nc5ccccc5Cl)cc4)n3)cc2)CC1` 0.261

Please give the measured half-life for this compound: `CCOP(=O)(OCC)Oc1cc(C)nc(C(C)C)n1` 1.67

Please give the measured half-life for this compound: `CCN(CC)CC(=O)Nc1c(C)cccc1C(=O)OC` 0.4

----------
# System: human liver microsomes, metabolic stability half-life
# Measurement Description: NCATS Human Liver Microsomal (HLM) Stability Profiling
# Condition Info: higher = more stable; screened at 1 µM (by protocol)
Please enter label 1 where half-life is greater than or equal to 10 min, and label 0 where it is lower.

CCNC1(C(N)=O)CN(c2nc(C)nc3c(-c4ccc(Cl)cc4)c(-c4ccccc4Cl)nn23)C1    label 1
Cc1c(CN2CCN(C(=O)C(C)C)CC2)sc2c(N3CCOCC3)nc(-c3cnc(N)nc3)nc12    label 1
CCN1CCCC1CNC(=O)C(O)(c1ccccc1)c1ccccc1 (configuration not stated)    label 1
Cc1cccc(C)c1NC(=O)CN1CCCC1    label 1
Cc1ccc(COC(=O)N2CC[C@@H](CNc3ncccn3)[C@@H](F)C2)cc1    label 1
Cc1cccc(N(C)C(=S)Oc2ccc3ccccc3c2)c1    label 0
CCC(=C(c1ccccc1)c1ccc(OCCN(C)C)cc1)c1ccccc1    label 1
COC(=O)c1ccc([C@H]2c3[nH]c4ccccc4c3C[C@H](C(=O)OC)N2C(=O)CCl)cc1    label 0

In plain terms: is recorded half-life at least 10 min for `CCOP(=S)(OCC)Oc1nc(Cl)n(C(C)C)n1` ? label 1

In plain terms: is recorded half-life at least 10 min for `N#Cc1c[nH]c2c(C(=O)N3CCN(CCc4ccc(F)cc4)CC3)cccc12` ? label 1

In plain terms: is recorded half-life at least 10 min for `C#Cc1cccc(Nc2ncnc3cc(OCCOC)c(OCCO)cc23)c1` ? label 1

In plain terms: is recorded half-life at least 10 min for CCCNC(=O)C1CCC(Cn2c(=O)c3sccc3n(CC(=O)NCc3ccccc3)c2=O)CC1 (configuration not stated) ? label 1

In plain terms: is recorded half-life at least 10 min for `CCOc1ccc(Nc2nc(C)c(NC(=O)c3ccc(C)cc3)c(Nc3ccc(OCC)cc3)n2)cc1` ? label 1

In plain terms: is recorded half-life at least 10 min for CN1C(=O)C(Cc2ccc3ccccc3c2)N=C(c2ccc(O)cc2)c2cc(Cl)ccc21 (configuration not stated) ? label 1

In plain terms: is recorded half-life at least 10 min for Cc1ccc(C(=O)Oc2ccc(C(O)CNC(C)(C)C)cc2OC(=O)c2ccc(C)cc2)cc1 (configuration not stated) ? label 0

In plain terms: is recorded half-life at least 10 min for `O=C(O)c1ccc(CN2CCOC[C@H]2c2ncc(-c3ccc(F)cc3)[nH]2)cc1` ? label 1

In plain terms: is recorded half-life at least 10 min for `COP(=O)(OC)Oc1ccc([N+](=O)[O-])cc1` ? label 1

In plain terms: is recorded half-life at least 10 min for `COc1ccccc1CN[C@H]1C2CCN(CC2)[C@H]1C(c1ccccc1)c1ccccc1` ? label 1
